Form field: Z score (one value per entry).
System: Plasmodium falciparum
Assay notes: Primary screen in NF54 nanoGlo assay, in single point, at 2uM, 72h
Type: functional, Erythrocyte
Condition set: timepoint 72 hour
Hit rate of the full screen: of about 150,000 compounds, about 540 (0.36%) showed an effect of 50% or more. This excerpt belongs to a sample that is enriched for strong results.
Value type: Z score

> print(dat)
                                        smi  observed.value
1         CC[C@H]1CCCCCN1C(=O)NCCc1nnc(C)s1             1.2
2            Cc1n[nH]c(=O)c2c1cnn2-c1ccccc1           -2.61
3  CO[C@@]12CC[C@@H](OCC3CC3)C[C@@H]1N(C(=O)c1csc(C(C)C)n1)CC2            0.34
4  Cc1ccncc1C(=O)N1CCCN(Cc2ccncc2)[C@H](c2ccccc2)CC(=O)NCC1            0.48
5  CCOC(=O)c1cc2n(n1)C[C@@](C)(C(=O)NCCC(C)C)N(c1ccc(C)c(C)c1)C2=O            0.75

* * *

Test system: Plasmodium falciparum
Assay notes: Primary screen in NF54 nanoGlo assay, in single point, at 2uM, 72h
Type: functional, Erythrocyte
Condition set: timepoint 72 hour
Screen size: about 150,000 compounds; about 540 (0.36%) showed an effect of 50% or more. Shown is part of a subset that was picked to be rich in strong results.
Rule: Z score of 1 or more gives fulfilled; anything lower gives not fulfilled.

> print(dat)
                                    molecule    label.value
 1  Clc1cnn(CCN2CCc3onc(-c4cccc5ccccc45)c3C2)c1  not fulfilled
 2        CC(=O)c1cc(Br)ccc1NCC(=O)N(C)CCC#N      fulfilled
 3  COc1cc(Cl)c(C)cc1NC(=O)c1cc(=O)n(-c2ccc(C)cc2)[nH]1  not fulfilled
 4  COCCNC(=O)[C@@H](C)[C@@H]1CC[C@@]2(C)CC[C@H](NC(=O)CC(C)(C)C)[C@@H](C)[C@@H]2[C@H]1O  not fulfilled
 5       Cc1nc2ccc(NC(=O)Nc3ccc(F)cc3F)cc2s1      fulfilled
 6  C[C@H]1[C@@H]2[C@@H](O)C([C@H](C)C(=O)NC3CCCCC3)CC[C@@]2(C)CC[C@@H]1NC(=O)CC(C)(C)C (stereo partly specified)  not fulfilled
 7  FC(F)(F)c1ccc(-c2nc(CN(Cc3ccccc3)Cc3ccccc3)cs2)cc1  not fulfilled
 8  O=C(Cc1ccc(F)cc1Cl)N[C@@H](Cc1ccncc1)C1CC(O)C1 (stereo partly specified)      fulfilled
 9         COc1cc(Cl)c(C)cc1NC(=O)c1cnn[nH]1      fulfilled
10  CCOc1nc(-c2cccc(F)c2)n(-c2ccc(NC(=O)Nc3ccc(F)cc3F)cc2)n1      fulfilled
11             Cc1n[nH]c(C(=O)N2CCCCCC2)c1Br  not fulfilled

* * *

Form field: Z score (one value per entry).
Tested on: Plasmodium falciparum
Assay notes: Primary screen in NF54 nanoGlo assay, in single point, at 2uM, 72h
Assay type: functional, Erythrocyte
Condition set: timepoint 72 hour
The whole screen tested about 150,000 compounds, of which about 540 (0.36%) showed an effect of 50% or more. The full list was thinned out, with strong results kept by preference.
Value type: Z score

> print(dat)
                                    compound  observed.value
 1  Cn1nc(-c2nc(-c3ccc(F)cc3)no2)c2c1CCN(C(=O)c1cccc(Cl)c1)C2           -7.55
 2  CCN1CCOC(C(=O)N2CCCC(COc3ccccc3)C2)C1 (stereo not given)            1.91
 3  CCn1cc(C(=O)Nc2ccc(OCCN3CC[C@H](C)C3)cc2)cn1           -0.92
 4             Cc1ccc2[nH]c3c(c2c1)CN(C)CCC3           -0.52
 5  CN1CCN(S(=O)(=O)N[C@@H](CO)c2ccc(F)cc2)CC1            2.47
 6  Cc1c([C@@H](NCC(=O)N2CCC(C(N)=O)CC2)C(C)C)oc2ccccc12             1.5
 7  Cn1nc(-c2nc(-c3cccc(F)c3)no2)c2c1CCN(C(=O)c1ccccn1)C2           -1.38
 8   O=C1CN(Cc2nc(-c3ccccc3)nn2C2CCCCC2)CCN1            1.19
 9       Cc1ccc(N2CCOCC2)c(NC(=O)C2CCCCC2)c1            0.12
10  Cc1c([C@@H](NCc2ncccc2O)C(C)C)oc2ccccc12           -8.67

* * *

Form field: % Inhibition (one value per entry).
Tested on: Plasmodium falciparum
Assay notes: Primary screen in NF54 nanoGlo assay, in single point, at 2uM, 72h
Type: functional, Erythrocyte
Condition set: timepoint 72 hour
In all, about 150,000 compounds went through this assay and about 540 (0.36%) showed an effect of 50% or more. The full list was thinned out, with strong results kept by preference.
Value type: % Inhibition (%)

> print(dat)
                                        smi  observed.value
1  CCN1C(=O)c2ccccc2N2C(=O)CC[C@@]12C(=O)Nc1cccc(OC)c1              92
2  CCCCN1C(=O)c2ccccc2N2C(=O)CC[C@@]12C(=O)Nc1nccs1              25
3      CC(=O)c1cccc(NC(=O)N2CCC3(CCC3)C2)c1              -6
4  CCCN1C(=O)c2ccccc2N2C(=O)CC[C@@]12C(=O)Nc1ccccc1              88
5  CCCN1C(=O)c2ccccc2N2C(=O)CC[C@@]12C(=O)Nc1cccc(NC(C)=O)c1               8
6  CCCN1C(=O)c2ccccc2N2C(=O)CC[C@@]12C(=O)Nc1ccc(OC)cc1              88
7          CC(=O)c1cccc(NC(=O)N2CCCCCCC2)c1               2
8  CCc1cccc(NC(=O)Cc2nc(-c3cccnc3)n[nH]2)c1             -13
9  CC(=O)c1cccc(NC(=O)[C@@]23CCC(=O)N2c2ccccc2C(=O)N3C)c1              84

* * *

Tested on: Plasmodium falciparum
Assay notes: Primary screen in NF54 nanoGlo assay, in single point, at 2uM, 72h
Type: functional, Erythrocyte
Condition set: timepoint 72 hour
Screen size: about 150,000 compounds; about 540 (0.36%) showed an effect of 50% or more. This is one part of a sample in which strong results are shown more often than they occur.
Value type: Z score

> print(dat)
                                   compound  value.type  observed.value
1      COc1ccc(Cl)cc1[C@H](C)NCc1nncn1C1CC1     Z score            2.01
2  CC1CC(Nc2ncnc3cc(Br)ccc23)CCN1C (centres undefined)     Z score           -8.72
3  O=C(NCc1ccc(Br)cc1)NC1CC2OCCCC12 (centres undefined)     Z score             1.4
4  CCN(CC)Cc1cnc2c(C(=O)N(C)C3Cc4ccccc4C3)cnn2c1     Z score            0.83

* * *

System: Plasmodium falciparum
Assay notes: Primary screen in NF54 nanoGlo assay, in single point, at 2uM, 72h
Type: functional, Erythrocyte
Condition set: timepoint 72 hour
In all, about 150,000 compounds went through this assay and about 540 (0.36%) showed an effect of 50% or more. The sample as a whole holds a higher share of strong results than the screen did.
Form field: % Inhibition (one value per entry).
Value type: % Inhibition (%)

> print(dat)
                                        smi    value.type  readout.units  observed.value
1  CN(C(=O)CC1(C(=O)O)CCC1)[C@H]1CCOc2ccc(Br)cc21  % Inhibition              %               1
2  CC[C@@H](c1ccccn1)n1cc(-c2cc(CN(C)C)cs2)nn1  % Inhibition              %              -6
3  COc1ccc(C[C@@]2(CCC(=O)N3CCCCC3)CCC(=O)N2)cc1  % Inhibition              %               4

* * *

Form field: % Inhibition (one value per entry).
Tested on: Plasmodium falciparum
Assay notes: Primary screen in NF54 nanoGlo assay, in single point, at 2uM, 72h
Type: functional, Erythrocyte
Condition set: timepoint 72 hour
Out of some 150,000 compounds screened, about 540 (0.36%) showed an effect of 50% or more. This excerpt belongs to a sample that is enriched for strong results.
Value type: % Inhibition

> print(dat)
                                    molecule  observed.value
 1  COc1ccc(-c2nccn3cc(C(=O)N4CCCCCC4)nc23)cc1             51%
 2  N#Cc1nc(C2CC2)oc1N1CCN(C(=O)CCc2ccco2)CC1             -7%
 3              COc1ccc(CNC/C=C/c2ccccc2)cc1            -20%
 4  COC1CCC(CCNCc2ccccc2)CC1 (stereo unspecified)            -15%
 5                 CC1(C)CC(C)(C)c2ccccc2CN1              3%
 6  CCc1nnc(-c2[nH]c(C)c(S(=O)(=O)Nc3cccc(Cl)c3)c2C)o1             -5%
 7  Cn1nc(-c2nc(-c3cccc(F)c3)no2)c2c1CCN(C(=O)c1cccc(F)c1)C2             -7%
 8  CCc1noc(C)c1C(=O)Nc1sc2c(c1C(N)=O)CCCCC2            -23%
 9  CCc1nc(C#N)cc(N2CCC[C@@H]2CS(C)(=O)=O)n1             -2%
10  Cn1nnc(C(=O)N2CCC(c3ccccc3)(N3CCCC3)CC2)n1              7%
11  OCCN(CCO)c1ccc(C(c2ccccc2Cl)c2ccc(N(CCO)CCO)cc2Cl)c(Cl)c1             -9%
